test system: SR leukemia; experiment: NCI tumour cell line growth inhibition, 48 h; in the data active = GI50 below about 0.43 µM; inactive = the rest
# output must be one of yes = active, no = inactive

O=C(Nc1ccc(Cl)cc1)c1cc2ccccc2cc1OP(=O)(O)O	no
O=C(Nc1nc(-c2ccccc2Cl)cs1)c1cc(-c2ccc(Cl)cc2)nc2ccc(Cl)cc12	no
ClCc1ccc(-c2ccc(Cn3cnc4c(Cl)ncnc43)cc2)cc1	no
COc1cccc(/C=C2\CCc3ccccc3C2=O)c1	no
N/C(=N\C(N)=N\c1nc2ccccc2s1)c1ccnc(Br)c1	no
CNC(=O)c1cc(Oc2ccc3nc(NC(=O)Nc4cc(C(F)(F)F)cc(C(F)(F)F)c4)sc3c2)ccn1	no
CCOC(=O)Nc1cc(-c2ccc(C)c(NS(C)(=O)=O)c2)nn2c(C)nnc12	no
COC1C(C)OC(OC2CC(C)(O)Cc3cc4c(c(O)c32)C(=O)c2c(O)cc3c(c2C4=O)OC2OC3(C)C(O)C(N(C)C)C2O)C(OC)C1(C)OC (stereo not given)	yes
COc1ccc2c(c1)C(=O)c1c-2c(OCCN2CCCCC2)nc2ccc(OC)cc12	yes

Note: attention shifts to another entry.
Please let me know the test result on file for O=C1Nc2c(ccc(Cl)c2Cl)/C1=C\c1cc(C(F)(F)F)cc(C(F)(F)F)c1 .
yes

###

system: M19-MEL melanoma; assay: NCI tumour cell line growth inhibition, 48 h
Parameter threshold = 30 µM. Response is yes (1) when TGI meets or exceeds it, else no (0).

O=C1C(=Cc2ccc([N+](=O)[O-])o2)C(=O)N(CCc2ccccc2)S(=O)(=O)N1CCc1ccccc1	yes (1)

API: above_or_equal(metric=TGI, cutoff=30 µM) for item CN(CCCCN)c1ccc2c(=O)[nH][nH]c(=O)c2c1
yes (1)

API: above_or_equal(metric=TGI, cutoff=30 µM) for item COc1cc([C@@H]2c3cc4c(cc3[C@@H](NC(=O)c3ccc(OC(C)=O)cc3)C3COC(=O)[C@@H]32)OCO4)cc(OC)c1O (some centres not stated)
yes (1)

###

test system: T-47D breast; experiment: NCI tumour cell line growth inhibition, 48 h
# GI50 values compiled below

C=CCCCC(O)c1ccc(C(O)c2cnc3ccccc3c2)o1 (centres undefined)	> 100000 nM

For record Cc1cc2nc3c4cc([N+](=O)[O-])ccc4n(CCN(C)C)c3nc2cc1C the listed GI50 is 549 nM

For record Nc1nc(Cl)nc2c1ncn2C1OC(CO)C(O)C1O (centres undefined) the listed GI50 is > 100000 nM

For record O=C(NC(Cc1ccccc1)C(=O)CCl)OCc1ccccc1 (centres undefined) the listed GI50 is 3370 nM

For record CCOC(=O)Nc1cc(-c2ccc(C)c(NS(C)(=O)=O)c2)nn2c(C)nnc12 the listed GI50 is 1470 nM

For record C=C(C)[C@@H]1CC[C@]2(C(=O)N3CCN(C)CC3)CC[C@]3(C)[C@H](CC[C@@H]4[C@@]5(C)CC[C@H](O)C(C)(C)[C@@H]5CC[C@]43C)[C@@H]12 the listed GI50 is 1480 nM

###

system: HOP-18 NSCLC; assay: NCI tumour cell line growth inhibition, 48 h
# TGI values compiled below

COc1cc(CC2C(=O)OCC2[C@@H](OC(C)=O)c2ccc3c(c2)OCO3)c(Br)c(OC)c1OC (stereo partly specified)	> 100 µM
O=C(O)c1ccccc1C1c2ccc(Cl)cc2Oc2cc(Cl)ccc21	> 100 µM
Cc1ccc(S(=O)(=O)OC2CSSCC2OS(=O)(=O)c2ccc(C)cc2)cc1 (stereo unspecified)	31.1 µM

Reading of TGI for N/C(=N/N=C/c1cccc(F)c1)NO with HOP-18 NSCLC: > 100 µM

Reading of TGI for CCCCC1N=CNc2c1ccc1c2[nH]c2ccccc21 (stereo unspecified) with HOP-18 NSCLC: 22.5 µM

Reading of TGI for O=P(Nc1cccc(Cl)c1)(Oc1ccccc1)N(CCCl)CCCl (stereo unspecified) with HOP-18 NSCLC: 47.2 µM

Reading of TGI for COc1cc(CC(=O)c2cc3c(cc2-c2ccccc2)OCO3)cc(OC)c1OC with HOP-18 NSCLC: > 100 µM

Reading of TGI for CCOC(=O)C1=C(O)c2ccc(OC)cc2C(=O)C1=O with HOP-18 NSCLC: 66.5 µM

###

# TGI values compiled below
system: SK-MEL-28 melanoma; assay: NCI tumour cell line growth inhibition, 48 h

Example molecules with recorded TGI:
O=C1C(c2c(O)[nH]c3ccc(I)cc23)=Nc2ccccc21	> 86.3 µM
O=C(O)CCCc1cc2c(s1)-c1cccc3cccc-2c13	> 100 µM

For record CN(CCCCN)c1ccc2c(=O)[nH][nH]c(=O)c2c1 the listed TGI is > 100 µM

For record COc1cc(O)c2c(=O)c(OC)c(-c3ccc(OC)c(OC)c3)oc2c1.[Sn] the listed TGI is > 100 µM

For record CCCCC1N=CNc2c1ccc1c2[nH]c2ccccc21 (stereo not drawn) the listed TGI is 24.6 µM

For record C=CC(=C)CCC(Br)C(C)(C)Cl (stereo not drawn) the listed TGI is > 100 µM

###

test system: 786-0 renal; experiment: NCI tumour cell line growth inhibition, 48 h
# TGI values compiled below

Example molecules with recorded TGI:
Cc1cc2nc3c4cc([N+](=O)[O-])ccc4n(CCN(C)C)c3nc2cc1C	3.02 µM
COC1/C=C/OC2(C)Oc3c(C)c(O)c4c(O)c(c(C=NOC(c5ccccc5)c5ccccc5)c(O)c4c3C2=O)NC(=O)/C(C)=C/C=C/C(C)C(O)C(C)C(O)C(C)C(OC(C)=O)C1C (stereo not given)	3.06 µM

Here's the next entry for you.
Reading of TGI for CC1=C(C(=O)NCCCN(CCO)CCO)CC(C(=O)NCCCN(CCO)CCO)=C(C)N1 with 786-0 renal: > 100 µM

###

tested on: RXF 393 renal; test: NCI tumour cell line growth inhibition, 48 h
attribute_measured: TGI

Example molecules with recorded TGI:
Clc1ccc(Nc2ncnc3c2sc2ncccc23)c(Cl)c1	> 100 µM
O=C(CC1(O)C(=O)Nc2ccc([N+](=O)[O-])cc21)c1ccc(Br)cc1 (stereo not drawn)	71.1 µM

For record CSc1nc(SC)c2c(C)cn(C3OC(C)C(O)C(O)C3O)c2n1 (stereo not drawn) the listed TGI is > 100 µM

###

system: MDA-MB-231 breast; test: NCI tumour cell line growth inhibition, 48 h; in the data active = GI50 below about 0.43 µM; inactive = the rest
# output must be one of true (1) for active, false (0) for inactive

O=C(c1ccccc1)c1c2n(c3c1cc(O)c1ccccc13)CCN2	false (0)
O=C(NC(Cc1ccccc1)C(=O)CCl)OCc1ccccc1 (stereo not drawn)	false (0)
O=C(Nc1nc(-c2ccccc2Cl)cs1)c1cc(-c2ccc(Cl)cc2)nc2ccc(Cl)cc12	false (0)
Cc1ccnc(NC(c2ccccc2)c2ccc3cccnc3c2O)c1 (stereo not drawn)	false (0)
Cn1c(=O)c(-c2c(Cl)cccc2Cl)cc2cnc(Nc3ccc(I)cc3)nc21	true (1)
CCCCCCn1c2c(c3c(O)cccc31)C(=O)c1ccccc1-2	false (0)
O=C1c2ccccc2-c2ccccc2C1(Cl)Cl	false (0)

Please let me know the test result on file for CNC(=O)c1cc(Oc2cccc3nc(NC(=O)Nc4ccc(F)cc4F)ccc23)ccn1 .
false (0)

###

# GI50 values compiled below
test system: HS 578T breast; assay: NCI tumour cell line growth inhibition, 48 h

O=C(Nc1ccc(Cl)cc1)c1cc2ccccc2cc1OP(=O)(O)O	2.96 µM
CCN(CC)CCNC(=O)C(Cl)=C1C(Cl)=C(Cl)C(Cl)=C1Cl	3.01 µM
COC1/C=C/OC2(C)Oc3c(C)c(O)c4c(O)c(c(C=NOC(c5ccccc5)c5ccccc5)c(O)c4c3C2=O)NC(=O)/C(C)=C/C=C/C(C)C(O)C(C)C(O)C(C)C(OC(C)=O)C1C (stereo not given)	1.5 µM
NCCCCCCCCCn1c2c(c3ccccc3c1=O)C(=O)c1ccccc1-2	10.3 µM

For record C=C(C)[C@@H]1CC[C@]2(C(=O)N3CCN(C)CC3)CC[C@]3(C)[C@H](CC[C@@H]4[C@@]5(C)CC[C@H](O)C(C)(C)[C@@H]5CC[C@]43C)[C@@H]12 the listed GI50 is 1.94 µM

For record COc1cc(/C=C2\CC3C4CCC5=CC(=O)CC[C@]5(C)C4CC[C@]3(C)C2=O)ccc1OCCN1CCCCC1 (stereo not given in full) the listed GI50 is 4.79 µM

For record O=C(NC(Cc1ccccc1)C(=O)CCl)OCc1ccccc1 (stereo not given) the listed GI50 is 6.23 µM

For record COc1cc(/C=C/c2ccc(S(N)(=O)=O)cc2)cc(OC)c1 the listed GI50 is 20.1 µM

For record [Au+].c1c[n-]cn1.c1ccc([PH+](c2ccccc2)c2ccccc2)cc1 the listed GI50 is 17.1 µM

For record N/C(=N\C(N)=N\c1nc2ccccc2s1)c1ccnc(Br)c1 the listed GI50 is 3.76 µM
